The measurements presented in this section are drawn from the supplement of paper PMC10567573.

B1: CCNC (parent)
chain: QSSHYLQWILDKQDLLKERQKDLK

Variants of: B1
Assay Name: protein stability index of a GFP-peptide fusion (GPS, HEK-293T) (PSI 1-6); higher = more stable;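 note: lentivirally expressed fusions sorted by FACS into six bins by GFP to DsRed ratio, PSI derived from sequencing read proportions per bin multiplied by bin number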
Measurement Setup: c terminus: a fixed tail appended
protein stability index values, listed per item
Give the figure by itself; no unit, no explanation.

Example variants with recorded protein stability index:
1. D11G : 2.75
2. Y5V : 3.28

Let us examine a further case.
Q: Query (variant): `S2T` ; field requested: protein stability index
Ans: 2.84
